Recorded % cross reactivity values for a group of molecules are listed next.
# System: hybridoma clone MAB 1/E2-5/B5
# assayMethodText: competitive immunoassay (ELISA), cross reactivity with MAB 1/E2-5/B5
# Format: binding, mouse
# experimentalParameters: n.b. = not determinable
Note: unit % is implicit; provide only the numeric part.

Look over these answered cases.
molecule	quantityKind	reportedResult
CC1(C)[C@H](C=C(Cl)Cl)[C@H]1C(=O)OCc1c(F)c(F)c(F)c(F)c1F	% cross reactivity	13
CC(C)=CC1C(C(=O)OCc2cccc(Oc3ccccc3)c2)C1(C)C (stereo not shown)	% cross reactivity	86
C=CCC1=C(C)C(OC(=O)C2C(C=C(C)C)C2(C)C)CC1=O (stereo not shown)	% cross reactivity	100

Attention now turns to another entry.
I'm curious: which % cross reactivity was measured for C=CCC1=C(C)C(OC(=O)[C@@H]2[C@@H](C=C(C)C)C2(C)C)CC1=O (stereo partly shown) tested on hybridoma clone MAB 1/E2-5/B5?
104
